Target: T1, huNectin4-His (human, UniProt Q96NY8 32-349)
T1 construct: Immobilized on the SPR chip; also called humanNectin4; human Nectin4; not shown: His tag
T1 sequence (looked up): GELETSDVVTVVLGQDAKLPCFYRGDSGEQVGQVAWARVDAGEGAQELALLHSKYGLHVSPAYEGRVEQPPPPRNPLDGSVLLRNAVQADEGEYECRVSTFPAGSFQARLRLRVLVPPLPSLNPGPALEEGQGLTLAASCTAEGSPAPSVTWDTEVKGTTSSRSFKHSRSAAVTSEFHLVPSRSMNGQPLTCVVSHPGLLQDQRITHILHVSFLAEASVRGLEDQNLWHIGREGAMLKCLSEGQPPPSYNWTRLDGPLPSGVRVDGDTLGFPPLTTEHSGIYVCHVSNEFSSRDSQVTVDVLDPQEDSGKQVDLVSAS
Experiment: SPR, huNectin4-His immobilized, pH 7.4
Kd under 2 nM gets met, anything at or over 2 nM gets not met.

Incoming: Lab note: confirm whether the reported Kd for this binder is below 2 nM, equality not counting. binder: BAP-143-00-06 (antibody, V domains shown, Used as a conjugate with a linker payload (CAB ADC)) VH: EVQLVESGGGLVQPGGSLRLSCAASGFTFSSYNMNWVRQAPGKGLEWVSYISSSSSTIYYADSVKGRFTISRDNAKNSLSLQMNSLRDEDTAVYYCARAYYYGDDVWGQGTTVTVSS VL: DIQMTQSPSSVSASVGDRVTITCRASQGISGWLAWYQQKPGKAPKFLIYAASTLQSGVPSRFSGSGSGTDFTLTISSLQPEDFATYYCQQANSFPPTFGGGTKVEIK
Outgoing: met

Incoming: Lab note: confirm whether the reported Kd for this binder is below 2 nM, equality not counting. binder: BAP-143-wildtype (antibody, V domains shown, 150 kDa used in SPR; also called BAP143-00-00; benchmark (BM)) VH: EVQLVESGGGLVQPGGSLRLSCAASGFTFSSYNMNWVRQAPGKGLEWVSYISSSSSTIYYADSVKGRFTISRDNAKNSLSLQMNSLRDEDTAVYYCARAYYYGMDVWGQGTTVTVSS VL: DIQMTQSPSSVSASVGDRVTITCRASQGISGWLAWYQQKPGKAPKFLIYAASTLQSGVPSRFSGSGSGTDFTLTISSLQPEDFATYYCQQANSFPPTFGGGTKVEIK
Outgoing: met

Incoming: Lab note: confirm whether the reported Kd for this binder is below 2 nM, equality not counting. binder: BAP-143-00-05 (antibody, V domains shown, Used as a conjugate with a linker payload (CAB ADC)) VH: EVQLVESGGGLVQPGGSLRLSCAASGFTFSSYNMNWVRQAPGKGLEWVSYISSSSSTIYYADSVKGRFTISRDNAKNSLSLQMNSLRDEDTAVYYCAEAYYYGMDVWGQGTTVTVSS VL: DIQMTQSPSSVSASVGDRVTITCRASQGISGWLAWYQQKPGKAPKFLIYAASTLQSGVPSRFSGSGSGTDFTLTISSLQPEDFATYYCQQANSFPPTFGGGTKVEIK
Outgoing: not met

Incoming: Lab note: confirm whether the reported Kd for this binder is below 2 nM, equality not counting. binder: BAP-143-00-04 (antibody, V domains shown, Used as a conjugate with a linker payload (CAB ADC)) VH: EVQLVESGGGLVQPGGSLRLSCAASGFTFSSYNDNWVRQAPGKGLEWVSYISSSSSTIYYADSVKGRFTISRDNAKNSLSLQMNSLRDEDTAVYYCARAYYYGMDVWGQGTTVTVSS VL: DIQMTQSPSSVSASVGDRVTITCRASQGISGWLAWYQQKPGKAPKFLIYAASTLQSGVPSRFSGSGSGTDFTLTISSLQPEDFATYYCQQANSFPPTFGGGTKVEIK
Outgoing: met

Incoming: Lab note: confirm whether the reported Kd for this binder is below 2 nM, equality not counting. binder: BAP-143-00-03 (antibody, V domains shown, Used as a conjugate with a linker payload (CAB ADC)) VH: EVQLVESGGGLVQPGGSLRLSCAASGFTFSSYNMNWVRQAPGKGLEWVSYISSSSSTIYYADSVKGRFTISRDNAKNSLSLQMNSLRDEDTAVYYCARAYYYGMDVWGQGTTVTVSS VL: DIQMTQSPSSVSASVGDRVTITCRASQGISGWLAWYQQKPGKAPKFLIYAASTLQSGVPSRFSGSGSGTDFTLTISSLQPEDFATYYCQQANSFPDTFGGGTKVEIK
Outgoing: not met

Incoming: Lab note: confirm whether the reported Kd for this binder is below 2 nM, equality not counting. binder: BAP-143-00-01 (antibody, V domains shown, Used as a conjugate with a linker payload (CAB ADC)) VH: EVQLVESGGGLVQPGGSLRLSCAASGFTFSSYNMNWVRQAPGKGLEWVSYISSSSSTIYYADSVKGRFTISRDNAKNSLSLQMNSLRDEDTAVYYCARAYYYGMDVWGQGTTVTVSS VL: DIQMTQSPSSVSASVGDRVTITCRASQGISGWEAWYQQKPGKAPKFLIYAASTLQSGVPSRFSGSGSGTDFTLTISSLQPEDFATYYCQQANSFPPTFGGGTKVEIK
Outgoing: not met
